The values you see were collected from PubChem BioAssay (NCATS).

Test: qHTS for Inhibitors of the Aldehyde Dehydrogenase Family (ALDH1A2, ALDH1A3, ALDH2, ALDH3A1) (AID 2061307); further: nearly all actives have a fitted effect of over 50% in size
Details: ALDH inhibition qHTS; series mostly up to 50.3 µM
Records with an inconclusive call do not appear. The source made the active and inactive calls. The call rests on the fitted dose curve; in most records, active means well fitted inhibition curve with a large enough effect; inconclusive means small, poorly fitted or top-dose-only effect; inactive means no such curve, though single readings can be large or run the other way.
Give one outcome, nothing more. List: TRUE for active, FALSE for inactive

Record excerpt, results attached:
smilesCode: Nc1cc(S(=O)(=O)N2CCN(S(=O)(=O)c3ccc4c(c3)OCCO4)CC2)ccn1
assignedLabel: FALSE
--
smilesCode: FC(F)Oc1ccc(C2=Nn3c(nnc3-c3ccccc3C(F)(F)F)SC2)cc1OCC1CC1
assignedLabel: TRUE

Next item in the queue.
Tell me the recorded outcome of this test for `N#Cc1ccc(CN2CCC(N(CCc3ccccc3)Cc3ccccc3)CC2)cc1` .
FALSE

###

Assay: BET inhibitor-based combinations targeting novel dependencies in MECOM-rearranged (r) AML: AML-194 cell line (AID 2202237; further: nearly all actives have a fitted effect of over 40% in size)
Settings: AML-194 (MECOM-r AML) viability, CellTiter-Glo, 48 h; series mostly up to 46 µM
Results filed as inconclusive are left out. Activity calls are given as the source filed them. The call rests on the fitted dose curve; in most records, active means well fitted inhibition curve with a large enough effect; inconclusive means small, poorly fitted or top-dose-only effect; inactive means flat fitted curve, though single readings scatter.
Give one outcome, nothing more. List: active, inactive

Tell me the recorded outcome of this test for `CN(C)N=Nc1nc[nH]c1C(N)=O` .
inactive

Another compound: `C[C@H](NC(=O)CCC(F)(F)F)C(=O)N[C@@H]1C(=O)N(CCO)c2ncccc2-c2ccccc21`
inactive

Another compound: `C=CC(=O)N1CC/C(=C\c2ccc(F)c([N+](=O)[O-])c2)C(=O)/C(=C/c2ccc(F)c([N+](=O)[O-])c2)C1`
active

Another compound: `CN(C)CC[C@H](CSc1ccccc1)Nc1ccc(S(=O)(=O)NC(=O)c2ccc(N3CCN(Cc4ccccc4-c4ccc(Cl)cc4)CC3)cc2)cc1[N+](=O)[O-]`
active

###

Assay: BET inhibitor-based combinations targeting novel dependencies in MECOM-rearranged (r) AML: UCSD-AML1 cell line (AID 2202235); further: nearly all actives have a fitted effect of over 40% in size
Conditions: UCSD-AML1 AML cells viability, CellTiter-Glo, 48 h; series mostly up to 46 µM
Inconclusive results are not listed. The source made the active and inactive calls. Calls follow the shape of the dose curve; as a rule, active = well fitted inhibition curve with a large enough effect; inconclusive = small, poorly fitted or top-dose-only effect; inactive = no such curve, though single readings can be large or run the other way.
Give one outcome, nothing more. List: active, inactive

compound: CN(CCOc1ccc(C[C@H](Nc2ccccc2C(=O)c2ccccc2)C(=O)O)cc1)c1ccccn1
assignedLabel: inactive
//
compound: CCn1c(N)c(C(=O)NC)c(=O)c2ccc(C#CC(C)(O)COC)nc21 (stereo not drawn)
assignedLabel: inactive
//
compound: CN(Cc1cnc2nc(N)nc(N)c2n1)c1ccc(C(=O)N[C@@H](CCC(=O)O)C(=O)O)cc1
assignedLabel: active
//
compound: CC(C)(CO)n1cc(C(=O)c2cncc(NC(=O)Cc3ccc(Cl)cn3)c2)c2cnc(N)nc21
assignedLabel: inactive
//
compound: O=C(Nc1cccc(Nc2ncc(Br)c(NCCc3cnc[nH]3)n2)c1)N1CCCC1
assignedLabel: active

Tell me the recorded outcome of this test for `C/C=C1\NC(=O)[C@H]2CSSCC/C=C\[C@H](CC(=O)N[C@H](C(C)C)C(=O)N2)OC(=O)[C@H](C(C)C)NC1=O` .
active

Another compound: `Cc1nc2ccc(CN(C)c3ccc(C(=O)N[C@@H](CCC(=O)O)C(=O)O)s3)cc2c(=O)[nH]1`
active

Another compound: `O=C(NO)c1ccc(C2=Nc3ccccc3Oc3ccccc32)cc1`
active

Another compound: `O=C(NCc1ccccc1)[C@H](Cc1ccccc1)NC(=O)[C@H]1O[C@@H]1C(=O)NCCc1ccc(O)cc1`
inactive
